settings: bacteroides fragilis, 12 h, 2 µM
Description: The drug is tested on Bacteroides fragilis strain: NCTC 9343 for biotransformation. The drug concentrations were measured before and after a 12-h incubation by liquid-chromatography-coupled mass spectrometry (LC–MS)
recordedMetric: Bacterial Biotransformation

The cases that follow already have their Bacterial Biotransformation on record.
>  <compound>
CN1CCN(CC/C=C2/c3ccccc3Sc3ccc(S(=O)(=O)N(C)C)cc32)CC1

>  <recordedMetric>
Bacterial Biotransformation

>  <assayResult>
Compound metabolized

$$$$
>  <compound>
C#C[C@]1(OC(C)=O)CC[C@H]2[C@@H]3CCC4=C/C(=N/O)CC[C@@H]4[C@H]3CC[C@@]21CC [NORGESTIMATE]

>  <recordedMetric>
Bacterial Biotransformation

>  <assayResult>
Compound NOT metabolized

$$$$
>  <compound>
CCN(CC)CCOC(=O)C1(C2CCCCC2)CCCCC1

>  <recordedMetric>
Bacterial Biotransformation

>  <assayResult>
Compound NOT metabolized

$$$$
>  <compound>
O=c1n(CCCN2CCN(c3cccc(Cl)c3)CC2)nc2ccccn12

>  <recordedMetric>
Bacterial Biotransformation

>  <assayResult>
Compound NOT metabolized

$$$$
>  <compound>
O=C(NCc1ccccc1)OCCO [BURAMATE]

>  <recordedMetric>
Bacterial Biotransformation

>  <assayResult>
Compound NOT metabolized

$$$$

get_value(item= CO[C@]12C[C@@H](COC(=O)c3cncc(Br)c3)CN(C)[C@@H]1Cc1cn(C)c3cccc2c13 , readout=Bacterial Biotransformation) returns Compound NOT metabolized

get_value(item= COC(=O)[C@H](c1ccccc1Cl)N1CCc2sccc2C1.O=S(=O)(O)O [CLOPIDOGREL BISULFATE] , readout=Bacterial Biotransformation) returns Compound metabolized

get_value(item= CCCCC(=O)O[C@]1(C(=O)CO)[C@@H](C)C[C@H]2[C@@H]3CCC4=CC(=O)C=C[C@]4(C)[C@@]3(F)[C@@H](O)C[C@@]21C [BETAMETHASONE VALERATE] , readout=Bacterial Biotransformation) returns Compound metabolized

get_value(item= CC(NC(C)(C)C)C(=O)c1cccc(Cl)c1 (stereo not drawn) , readout=Bacterial Biotransformation) returns Compound NOT metabolized

get_value(item= CCCc1nn(C)c2c(=O)[nH]c(-c3cc(S(=O)(=O)N4CCN(C)CC4)ccc3OCC)nc12.O=C(O)CC(O)(CC(=O)O)C(=O)O [SILDENAFIL CITRATE] , readout=Bacterial Biotransformation) returns Compound metabolized

get_value(item= CNCC[C@H](Oc1cccc2ccccc12)c1cccs1 , readout=Bacterial Biotransformation) returns Compound metabolized

###

conditions: anaerostipes sp., 12 h, 2 µM
Description: The drug is tested on Anaerostipes sp. strain: fecal isolate for biotransformation. The drug concentrations were measured before and after a 12-h incubation by liquid-chromatography-coupled mass spectrometry (LC–MS)
recordedMetric: Bacterial Biotransformation

The cases that follow already have their Bacterial Biotransformation on record.
>  <compound>
COc1c(C)c2c(c(O)c1C/C=C(\C)CCC(=O)OCCN1CCOCC1)C(=O)OC2 [MYCOPHENOLATE MOFETIL]

>  <recordedMetric>
Bacterial Biotransformation

>  <assayResult>
Compound metabolized

$$$$
>  <compound>
CC[C@@H](CO)NC(=O)[C@@H]1C=C2c3cccc4c3c(cn4C)C[C@H]2N(C)C1.O=C(O)/C=C\C(=O)O [METHYSERGIDE MALEATE]

>  <recordedMetric>
Bacterial Biotransformation

>  <assayResult>
Compound metabolized

$$$$
>  <compound>
C[C@H]1O[C@@H](O[C@H]2[C@@H](O)C[C@H](O[C@H]3[C@@H](O)C[C@H](O[C@H]4CC[C@@]5(C)[C@H](CC[C@@H]6[C@@H]5C[C@@H](O)[C@]5(C)[C@@H](C7=CC(=O)OC7)CC[C@]65O)C4)O[C@@H]3C)O[C@@H]2C)C[C@H](O)[C@@H]1O

>  <recordedMetric>
Bacterial Biotransformation

>  <assayResult>
Compound NOT metabolized

$$$$
>  <compound>
CC[C@H](C)C(=O)O[C@H]1CCC=C2C=C[C@H](C)[C@H](CC[C@@H]3C[C@@H](O)CC(=O)O3)[C@H]21

>  <recordedMetric>
Bacterial Biotransformation

>  <assayResult>
Compound metabolized

$$$$

get_value(item= O=C1C(CC[S+]([O-])c2ccccc2)C(=O)N(c2ccccc2)N1c1ccccc1 (configuration not stated) , readout=Bacterial Biotransformation) returns Compound NOT metabolized

get_value(item= c1ccc([C@H]2CN3CCSC3=N2)cc1 , readout=Bacterial Biotransformation) returns Compound NOT metabolized
